pIC50: −log10 of the molar value.
Literature pIC50 values, system: SYK kinase (Homo sapiens).

Example entries and their recorded answers appear below.
CN1CCC(n2cc(Nc3nc4ccc(S(C)(=O)=O)cc4c4cn[nH]c34)cn2)CC1 | > 8.00
CC(C)(C)c1cc(NC(=O)Nc2ccc(OCc3ccnc(Nc4cnccn4)c3)c3ccccc23)n(-c2ccc(Cl)cc2)n1 | < 4.79

Then this molecule:
Requested field: pIC50. Item: `COc1cc(Nc2ncc3cc(-c4cc(C(=O)Nc5cc(C(C)(C)C)cc(NS(C)(=O)=O)c5OC)ccc4C)ccc3n2)ccc1C(=O)N1CCS(=O)(=O)CC1`
6.72

###

Literature IC50 values, system: SYK kinase (Homo sapiens).
// note: answer is a bare numeric in nM

Requested field: IC50. Item: `CC(=O)N1CCO[C@H](COc2nc(-c3ccc(C(C)(C)C)cc3)cc3nccnc23)C1`
55

Here is the next compound: `COc1c(NC(=O)Nc2ccc(Oc3ccnc(Nc4ccccc4)n3)c3ccccc23)cc(C(C)(C)C)cc1P(C)(C)=O`
273

Here is the next compound: `COc1cc(Nc2cc(Oc3ccc(NC(=O)Nc4cc(C(C)(C)C)cc(NS(C)(=O)=O)c4OC)c4ccccc34)ccn2)ccc1S(=O)(=O)CC(CO)(CO)CO`
108

Here is the next compound: `CNS(=O)(=O)CCN1CCO[C@H](COc2nc(-c3ccc(N(C)C)cc3)cc3nccnc23)C1`
477

Here is the next compound: `CNC(=O)c1cc(NC(=O)Nc2ccc(Oc3ccnc(Nc4cc(OC)cc(OCCOCCOCCOC)c4)n3)c3ccccc23)cc(C(C)(C)C)c1`
147

###

Literature pIC50 values, system: SYK kinase (Homo sapiens, UniProt P43405).
pIC50: −log10 of the molar value.

Example entries and their recorded answers appear below.
CC(C)Cn1cc(Nc2nc(-c3cnn(C)c3)nc3cn[nH]c23)cn1 | 7.00 to 8.00
COc1ccc(-c2nc([C@H]3C[C@@H](O)CN3C(C)=O)n3c2cnc2[nH]ccc23)s1 | 7.52 to 8.00
COc1ccc(C(N)=O)cc1-c1cc2nccc(-c3cc(C(=O)NCCN)ccc3OC)c2o1 | 5.52 to 6.52

Then this compound:
Requested field: pIC50. Item: `CN1CCN2c3ccc(Nc4ncc(C(N)=O)c(NC5CC5)n4)cc3OC[C@H]2C1`
> 7.30

###

Literature IC50 values, system: SYK kinase (Homo sapiens, UniProt P43405).

Example entries and their recorded answers appear below.
CC1(C)C(=O)Nc2cc(Nc3nc4c(N5CC6CCC(C5)O6)nccn4n3)ccc21 | < 100 nM
CCN1CCN(c2ccc(Nc3nc(NC4CC4)c4c(S(C)(=O)=O)n[nH]c4n3)cc2)CC1 | ≤ 200 nM

Form entry - test system: SYK kinase (Homo sapiens, UniProt P43405); read-out: IC50; compound: `COc1ccc(-c2cc3nccc(-c4ccccc4)c3o2)cc1NC(=O)[C@@H]1C[C@@H](O)CN1`
300 to 3000 nM

###

pIC50: −log10 of the molar value.
Literature pIC50 values, system: SYK kinase (Homo sapiens).

Example entries and their recorded answers appear below.
COc1cc(OC)cc(-c2nccn3nc(Nc4ccc5cnn(Cc6ccccc6)c5c4)nc23)c1 | 5.52 to 6.52
CN(C)CCCNc1nccn2nc(Nc3cccc(C(F)(F)F)c3)nc12 | 4.30 to 5.52
c1ccc(Cn2ncc3ccc(Nc4nc5c(-c6cccnc6)nccn5n4)cc32)cc1 | 5.52 to 6.52
CC1(C)CC(=O)Nc2cc(Nc3nc4c(N5CCC6(CC(=O)NC6=O)C5)nccn4n3)ccc21 (centres unmarked) | > 7.00

Then this compound:
Requested field: pIC50. Item: COc1cc(-c2cc3nccc(-c4cccc(C(=O)NCC(N)C5CC5)c4)c3o2)cc(OC)c1OC (centres unmarked)
5.52 to 6.52
